tested_system: system Xc^− (Homo sapiens, UniProt Q9UPY5)
Sequence (Q9UPY5 whole entry): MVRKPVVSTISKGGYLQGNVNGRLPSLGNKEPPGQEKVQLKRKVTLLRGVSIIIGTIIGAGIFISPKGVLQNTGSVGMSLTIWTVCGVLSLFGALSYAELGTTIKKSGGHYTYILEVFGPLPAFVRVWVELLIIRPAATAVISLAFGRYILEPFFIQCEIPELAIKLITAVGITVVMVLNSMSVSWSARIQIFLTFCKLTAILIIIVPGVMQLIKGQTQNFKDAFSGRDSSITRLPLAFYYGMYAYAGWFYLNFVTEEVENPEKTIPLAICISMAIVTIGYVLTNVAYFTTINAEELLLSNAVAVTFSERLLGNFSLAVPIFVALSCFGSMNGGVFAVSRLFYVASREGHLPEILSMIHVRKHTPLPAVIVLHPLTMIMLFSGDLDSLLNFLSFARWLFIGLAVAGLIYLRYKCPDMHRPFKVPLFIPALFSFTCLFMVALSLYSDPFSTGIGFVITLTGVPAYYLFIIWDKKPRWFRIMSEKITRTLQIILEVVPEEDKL
Sequence (P08195 102-630 partner): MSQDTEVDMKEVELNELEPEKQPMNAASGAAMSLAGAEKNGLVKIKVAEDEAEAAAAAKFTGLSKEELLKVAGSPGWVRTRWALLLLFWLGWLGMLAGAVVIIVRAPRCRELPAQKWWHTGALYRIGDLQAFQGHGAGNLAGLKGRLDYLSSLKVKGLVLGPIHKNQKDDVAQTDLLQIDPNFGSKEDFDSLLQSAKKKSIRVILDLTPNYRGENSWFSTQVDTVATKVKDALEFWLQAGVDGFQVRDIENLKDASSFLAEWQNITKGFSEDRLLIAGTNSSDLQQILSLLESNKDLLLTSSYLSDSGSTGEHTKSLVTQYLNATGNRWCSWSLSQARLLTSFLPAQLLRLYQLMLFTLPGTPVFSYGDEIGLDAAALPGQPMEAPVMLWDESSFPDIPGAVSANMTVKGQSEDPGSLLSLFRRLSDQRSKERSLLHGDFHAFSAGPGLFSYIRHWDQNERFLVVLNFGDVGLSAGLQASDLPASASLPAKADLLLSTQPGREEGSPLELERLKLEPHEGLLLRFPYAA
assay_comment: Cystine-induced glutamate release assay
Assay type: cell-based
Design: endogenous in cells; host or cells: H4 cells
details: H4 cells, sodium-free HEPES buffer, 50 μM L-Cystine, 2 hours, Amplex Red glutamate readout; read-out: pIC50 Cystine-induced glutamate release assay (converted)
Kindly supply the reported IC50 values for the records listed here.

Find the measured IC50: item Cc1cc2c(c(C)n1)-c1cccnc1CC(=O)N2CC(=O)Nc1ccc(C(F)(F)F)cc1 [#57] , target or system system Xc^− (Homo sapiens, UniProt Q9UPY5).
0.0158 to 0.0398 µM

# get_value(readout= IC50, system= system Xc^− (Homo sapiens, UniProt Q9UPY5)) for Cc1cc2c(c(F)n1)-c1cccnc1C(C)C(=O)N2CC(=O)Nc1ccc(F)c(F)c1 (centres unmarked) [#130]
0.0398 to 0.1 µM

# returns recorded IC50 (system: system Xc^− (Homo sapiens, UniProt Q9UPY5)) for Cc1cc2c(cc1C)-n1ccnc1CC(=O)N2CC(=O)Nc1ccc(C(F)(F)F)cc1 [#8]
0.1 to 0.501 µM

Item CC1C(=O)N(CC(=O)Nc2ccc(Cl)c(F)c2)c2cc(C3CC3)c(=O)n(C)c2-c2ccccc21 (centres unmarked) [#321] with system Xc^− (Homo sapiens, UniProt Q9UPY5) - IC50?
0.0158 to 0.0398 µM

Item: CC1C(=O)N(CC(=O)Nc2ccc(C(F)F)cc2)c2cc(N3CC(F)(F)C3)nc(F)c2-c2ccc(F)cc21 (single isomer, unassigned) [#291] Test system: system Xc^− (Homo sapiens, UniProt Q9UPY5) Read-out: IC50 Value: ?
< 0.0158 µM

Reported IC50 for system Xc^− (Homo sapiens, UniProt Q9UPY5), given COc1cc2c(c(F)n1)-c1cccnc1CC(=O)N2CC(=O)Nc1ccc(C(F)(F)F)cc1 [#124] ?
0.0398 to 0.1 µM

Observed IC50 on system Xc^− (Homo sapiens, UniProt Q9UPY5) for Cc1cc2c(c(C)n1)-c1ccc(F)cc1CC(=O)N2CC(=O)Nc1ccc(C(F)(F)F)cc1 [#65] , please.
0.0158 to 0.0398 µM

Requested read-out IC50, target or system system Xc^− (Homo sapiens, UniProt Q9UPY5), entry CC1C(=O)N(CC(=O)Nc2ccc(C(F)F)cc2)c2cc(N3CC4(COC4)C3)nc(F)c2-c2cccnc21 (single isomer, unassigned) [#284]
< 0.0158 µM
